Target: Sphingosine 1-phosphate receptor 3 (Homo sapiens) (UniProt Q99500)
Sequence (Q99500 whole entry, looked up): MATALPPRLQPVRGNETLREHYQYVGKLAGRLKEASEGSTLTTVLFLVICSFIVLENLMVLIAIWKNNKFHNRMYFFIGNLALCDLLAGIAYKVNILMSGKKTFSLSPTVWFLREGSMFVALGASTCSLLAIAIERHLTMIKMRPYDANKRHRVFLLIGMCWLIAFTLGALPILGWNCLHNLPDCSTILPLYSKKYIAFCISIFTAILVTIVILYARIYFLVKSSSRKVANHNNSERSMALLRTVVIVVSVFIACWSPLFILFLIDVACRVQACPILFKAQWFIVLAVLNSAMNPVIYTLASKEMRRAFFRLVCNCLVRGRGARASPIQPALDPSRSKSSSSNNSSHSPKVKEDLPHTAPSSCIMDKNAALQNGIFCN
Assay: S1P3 receptor agonists, SAR follow-up, cell-based, fluorescence, synthesized compounds (AID 540349)
Conditions: S1P3-expressing cells, agonist fluorescence read-out; run 1
Activity calls are given as the source filed them. No rule for the calls is given here.
Respond with a class label; see Y (active), N (inactive)

## Task # outcome recorded in this test, key = CC1CCCCC1N(C(=O)c1cc(C2CC2)on1)C1CCCCC1 (stereo not drawn)
## Result Y

## Task Each compound tested received a call. Report the one for O=C(c1cc(-c2ccccc2)on1)N(C1CCCCC1)C1CCCC1 .
## Result Y

## Task Status in this test for COc1ccc(-c2cc(C(=O)N(C3CCCCC3)C3CCCCC3)no2)cc1OC ?
## Result N

## Task Outcome? CCOc1ccc(-c2nc(C(=O)N(C3CCCCC3)C3CCCCC3)co2)cc1OCC
## Result N

## Task Given COc1ccc(-c2cc(C(=O)N(C3CCCCC3)C3CCCCC3)no2)cc1 , state the outcome it received in this test.
## Result Y

## Task // outcome(item) with item = O=C(c1coc(C2CC2)n1)N(C1CCCCC1)C1CCCCC1
## Result N

## Task Tell me the recorded outcome of this test for CC1CCCCC1N(C(=O)c1cc(C2CC2)on1)C1CCCCC1C (stereo not drawn) .
## Result Y

## Task Test call, this compound: O=C(c1cc(-c2ccccc2)on1)N(C1CCCCC1)C1CCCCC1
## Result Y

## Task What did the test return for O=C(c1cc(C2CC2)on1)N(Cc1ccccc1)c1ccccn1 ?
## Result Y

## Task Fill in: this test's call for CCCc1cc(C(=O)N(C2CCCCC2)C2CCCCC2)no1 is ___
## Result Y

## Task Field: outcome | Entry: O=C(c1noc2ccccc12)N(C1CCCCC1)C1CCCCC1
## Result N

## Task Please indicate how the test categorized O=C(NC1CCCCC1)c1cc(C2CC2)on1 .
## Result N

## Task I would be grateful if you could indicate the recorded call for CC1CCCCC1N(C(=O)c1cc(C2CC2)on1)C1CCCC1 (stereo not drawn) .
## Result Y

## Task Fill in: this test's call for O=C(c1cc(C2CC2)on1)N(C1CCCCC1)C1CCCC1 is ___
## Result Y

## Task For O=C(c1cc(C2CC2)on1)N(CC1CCCCC1)C1CCCCC1 , what call appears in the results of this test?
## Result Y

## Task Assay result, entry O=C(c1ccc(C2CC2)o1)N(C1CCCCC1)C1CCCCC1 — outcome?
## Result N

## Task Outcome? CC(C)Cc1cc(C(=O)N(C2CCCCC2)C2CCCCC2)no1
## Result Y

## Task Which outcome did this test record for the compound O=C(c1cc(C2CC2)on1)N(C1CCCCC1)C1CCCCC1 ?
## Result Y

## Task For CC1CCCCC1N(C(=O)c1cc(C2CC2)on1)C1CCOCC1 (stereo not drawn) , which call appears in the assay record?
## Result N

## Task Could you kindly confirm the outcome this assay logged for O=C(c1cc(C2CC2)on1)N(C1CCCCC1)C1CCOCC1 ?
## Result Y

## Task What outcome does the record of this test show for O=C(c1cc(C2CC2)on1)N(C1CCCCCC1)C1CCCC1 ?
## Result Y

## Task For O=C(c1cc(C2CC2)on1)N(Cc1ccccc1)c1ccccc1 , which call appears in the assay record?
## Result Y

## Task Hi, sorry to bother you, what did the test record for CC1CCCCC1N(C(=O)c1cc(C2CC2)on1)C1CCCCCC1 (stereo not drawn) ?
## Result Y

All values here come from PubChem BioAssay AID540349.
